assay: limiting solubility in liquid-crystalline mixtures at 20° C.; format: physicochemical; settings: ZLI-1840, 20° C.
Classify by measured Solubility (limiting): 1 (yes) if it is equal to or exceeds 2 mass %, 0 (no) if it is smaller.

# compound, labelValue
records = [
    ("CCCCC[C@H]1CC[C@H](c2ccc(C(=O)Nc3ccc(O)c4c3C(=O)c3c(NC(=O)c5ccc([C@H]6CC[C@H](CCCCC)CC6)cc5)cc(C)c(O)c3C4=O)cc2)CC1", "0 (no)"),
    ("CCCCc1cc(NC(=O)c2ccc(C3CCC(CCCC)CC3)cc2)c2c(c1OC(=O)CCC)C(=O)c1c(OC(=O)CCC)c(CCCC)cc(NC(=O)c3ccc(C4CCC(CCCC)CC4)cc3)c1C2=O (stereo not shown)", "1 (yes)"),
    ("CCCCCC1CCC(c2ccc(C(=O)Nc3cc(CCCC)c(O)c4c3C(=O)c3c(NC(=O)c5ccc(C6CCC(CCCCC)CC6)cc5)cc(CCCC)c(OC(=O)C5CCC(CCCC)CC5)c3C4=O)cc2)CC1 (stereo not shown)", "1 (yes)"),
    ("CCCCCc1cc(NC(=O)c2ccc(CCCC)cc2)c2c(c1O)C(=O)c1c(OC(=O)c3ccc(CCCC)cc3)c(CCCCC)cc(NC(=O)c3ccc(CCCC)cc3)c1C2=O", "0 (no)"),
    ("CCCCc1ccc(C(=O)Nc2ccc(OC(=O)c3ccc(CCCC)cc3)c3c2C(=O)c2c(NC(=O)c4ccc(CCCC)cc4)cc(C)c(OC(=O)c4ccc(CCCC)cc4)c2C3=O)cc1", "0 (no)"),
    ("CCCCCc1cc(NC(=O)c2ccc(CCCC)cc2)c2c(c1OC(=O)c1ccc(CCCC)cc1)C(=O)c1c(OC(=O)c3ccc(CCCC)cc3)c(CCCCC)cc(NC(=O)c3ccc(CCCC)cc3)c1C2=O", "1 (yes)"),
]

Has CCCCCC1CCC(c2ccc(C(=O)Nc3ccc(O)c4c3C(=O)c3c(NC(=O)c5ccc(C6CCC(CCCCC)CC6)cc5)cc(CCCC)c(O)c3C4=O)cc2)CC1 (stereo not shown) a recorded Solubility (limiting) greater than or equal to 2 mass %?
0 (no)

# check: Solubility (limiting) of CCCCCC1CCC(c2ccc(C(=O)Nc3ccc(OC(=O)c4ccc(C5CCC(CCCCC)CC5)cc4)c4c3C(=O)c3c(NC(=O)c5ccc(C6CCC(CCCCC)CC6)cc5)cc(C)c(OC(=O)c5ccc(C6CCC(CCCCC)CC6)cc5)c3C4=O)cc2)CC1 (stereo not shown) is greater than or equal to 2 mass %
0 (no)

Is the recorded value of Solubility (limiting) equal to or greater than 2 mass % for this compound? CCCCc1ccc(C(=O)Nc2cc(CCCC)c(NC(=O)c3ccc(CCCC)cc3)c3c2C(=O)c2ccccc2C3=O)cc1
1 (yes)

Determine whether measured Solubility (limiting) meets or exceeds 2 mass % for CCCCCCC1CCC(c2ccc(C(=O)Nc3cc(CCCC)c(O)c4c3C(=O)c3c(NC(=O)c5ccc(C6CCC(CCCCCC)CC6)nc5Cl)cc(CCCC)c(OC(=O)c5ccc(C6CCC(CCCCCC)CC6)nc5Cl)c3C4=O)c(Cl)n2)CC1 (stereo not shown)
0 (no)

Is reported Solubility (limiting) greater than or equal to 2 mass % here: CCCCCC1CCC(c2ccc(C(=O)Nc3cc(CCCC)c(O)c4c3C(=O)c3c(OC(=O)c5ccc(C6CCC(CCCCC)CC6)cc5)c(CCCC)cc(NC(=O)c5ccc(C6CCC(CCCCC)CC6)cc5)c3C4=O)cc2)CC1 (stereo not shown)
1 (yes)

Sourced from patent US4933104A
